Collected Plant response rating, Waterhemp values appear next to each entry.
Test system: waterhemp (common waterhemp, Amaranthus rudis)
procedure text: Test D pre-/postemergence plant response
Assay type: in vivo
experimental parameters: Postemergence, 62 g ai/ha; scale 0 to 100, 0 no effect, 100 complete control
Please give the numeric answer without any surrounding text.

Problem: Print waterhemp (common waterhemp, Amaranthus rudis) Plant response rating, Waterhemp for Fc1cccc(Oc2ncc(Cl)cn2)c1-c1cc(C2CC2)on1 [Compound 130] .
Result: 98

Problem: Write Plant response rating, Waterhemp of Cc1cc(-c2ccccc2Oc2ncc(Cl)cn2)no1 [Compound 153] ; system used: waterhemp (common waterhemp, Amaranthus rudis)
Result: 35

More entries:
Problem: Under waterhemp (common waterhemp, Amaranthus rudis), report Plant response rating, Waterhemp for FC(F)(F)c1cc(-c2c(Cl)cccc2Oc2ncc(Cl)cn2)no1 [Compound 169]
Result: 90

Problem: Determine reported Plant response rating, Waterhemp for FC(F)(Cl)c1cc(-c2ccccc2Oc2ncc(Cl)cn2)no1 [Compound 143] ; test system: waterhemp (common waterhemp, Amaranthus rudis).
Result: 100

Problem: Name the value of Plant response rating, Waterhemp reported for FC(F)Oc1cccc(Oc2ncc(Cl)cn2)c1-c1cc(C(F)F)on1 [Compound 131] when tested on waterhemp (common waterhemp, Amaranthus rudis).
Result: 90

Problem: Param request: Plant response rating, Waterhemp | system waterhemp (common waterhemp, Amaranthus rudis) | item FC(F)(Br)c1cc(-c2ccccc2Oc2ncc(Cl)cn2)no1 [Compound 162]
Result: 100
